tested on: HepG2 human hepatocellular carcinoma cells; assay: anti-proliferation, SRB colorimetric assay, HepG2; type: cell-based; details: concentration required for 50% growth inhibition, read-out: IC50 (μM, mean ± S.D.)
Metric name: IC50 (µM)
Give the value in µM but do not write µM after it.

Solved entries:
Compound	System name	Observed result
O=C1Nc2cc(NC(=O)c3c[nH]cc(-c4ccc(F)cc4F)c3=O)ccc2/C1=C/c1ccc[nH]1	HepG2 human hepatocellular carcinoma cells	0.56
Cc1[nH]c(/C=C2\C(=O)Nc3cc(NC(=O)c4c[nH]cc(-c5ccc(F)cc5)c4=O)ccc32)c(C)c1CC(=O)N1CCN(C)CC1	HepG2 human hepatocellular carcinoma cells	0.7
Cc1[nH]c(/C=C2\C(=O)Nc3cc(NC(=O)NC(=O)c4ccccc4F)ccc32)c(C)c1C(=O)O	HepG2 human hepatocellular carcinoma cells	0.85
O=C1Nc2cc(NC(=O)c3cccn(-c4ccc(F)cc4)c3=O)ccc2/C1=C/c1ccc[nH]1	HepG2 human hepatocellular carcinoma cells	0.9
CCN(CC)CCNC(=O)c1c(C)[nH]c(/C=C2\C(=O)Nc3cc(NC(=O)NC(=O)c4ccc(OC)cc4F)ccc32)c1C	HepG2 human hepatocellular carcinoma cells	0.88

Ask: Record lookup: for HepG2 human hepatocellular carcinoma cells, what IC50 belongs to O=C1Nc2cc(NC(=O)c3c[nH]cc(-c4cc(F)cc(F)c4)c3=O)ccc2/C1=C/c1ccc[nH]1 ?
Result: 0.6

Ask: For HepG2 human hepatocellular carcinoma cells, provide IC50 of Cc1ccc(C(=O)NC(=O)Nc2ccc3c(c2)NC(=O)/C3=C\c2ccc[nH]2)cc1 please.
Result: 0.93

Ask: What IC50 appears in the records for this compound with HepG2 human hepatocellular carcinoma cells? O=C1Nc2cc(NC(=O)c3cccn(-c4ccc(Cl)c(Cl)c4)c3=O)ccc2/C1=C/c1ccc[nH]1
Result: 0.82

Ask: I'm curious: which IC50 was measured for Cc1[nH]c(/C=C2\C(=O)Nc3cc(NC(=O)c4c[nH]cc(-c5ccc(F)cc5)c4=O)ccc32)c(C)c1C(=O)N1CCN(C)CC1 tested on HepG2 human hepatocellular carcinoma cells?
Result: 0.65

Ask: Notebook: pull reported IC50 for HepG2 human hepatocellular carcinoma cells, entry O=C1Nc2cc(NC(=O)c3c[nH]cc(-c4ccc(Cl)cc4)c3=O)ccc2/C1=C/c1ccc[nH]1
Result: 0.67

Ask: Observed IC50 on HepG2 human hepatocellular carcinoma cells for COc1ccc(C(=O)NC(=O)Nc2ccc3c(c2)NC(=O)/C3=C\c2[nH]c(C)c(C(=O)NCCN3CCCC3)c2C)c(F)c1 , please.
Result: 0.68

Ask: Notebook: pull reported IC50 for HepG2 human hepatocellular carcinoma cells, entry COc1ccc(C(=O)NC(=O)Nc2ccc3c(c2)NC(=O)/C3=C\c2[nH]c(C)c(C(=O)O)c2C)cc1
Result: 0.73

Ask: Provide value of IC50 for this record tested with HepG2 human hepatocellular carcinoma cells: O=C1Nc2cc(NC(=O)c3c[nH]cc(-c4ccccc4F)c3=O)ccc2/C1=C/c1ccc[nH]1
Result: 0.6

Ask: Return IC50 measured with HepG2 human hepatocellular carcinoma cells given this compound: Cc1cc(C)c(/C=C2\C(=O)Nc3cc(NC(=O)c4c[nH]cc(-c5ccc(F)cc5)c4=O)ccc32)[nH]1
Result: 0.56
